The values you see were collected from paper PMC4206343.

value.type: pKi
On this scale, pKi is minus log10 of a concentration expressed in M (mol/L).

Task: System Traf2- and Nck-interacting kinase (TNIK) (Homo sapiens, UniProt Q9UKE5). Read-out pKi. Item Cc1ccc(C(=O)Nc2sc(Nc3ccccc3)nc2C(N)=O)cc1 . Report value.
Result: 7.00
